# Test system: U-87 MG
# Protocol Description: MTT assay, U-87 MG
# Assay type: cell-based
# Condition Label: Homo sapiens, 24 h of incubation, read-out: IC50 values ± SEM, MTT assay
pIC50: −log10 of the molar value.
Quantity: pIC50

Known pIC50 results, listed for orientation:
>  <Molecule>
Cc1nn(-c2ccc(S(=O)(=O)NC[C@@H](O)CO)cc2)c2nn3nnnc3nc12 [MM127]

>  <pIC50>
< 5.00

$$$$
>  <Molecule>
Cc1nn(-c2ccc(S(=O)(=O)NC[C@H](O)CO)cc2)c2nn3nnnc3nc12 [MM126]

>  <pIC50>
< 5.00

$$$$
>  <Molecule>
CCC(CO)NS(=O)(=O)c1ccc(-n2nc(C)c3nc4nnnn4nc32)cc1 (stereo in doubt) [MM118]

>  <pIC50>
6.00

$$$$
>  <Molecule>
CCC(CO)NS(=O)(=O)c1ccc(-n2nc(C)c3nc4nnnn4nc32)cc1 (stereo in doubt) [MM119]

>  <pIC50>
5.92

$$$$
>  <Molecule>
Cc1nn(-c2ccc(S(=O)(=O)N[C@@H](CO)CC(C)C)cc2)c2nn3nnnc3nc12 [MM124]

>  <pIC50>
< 5.00

$$$$

Consider the record given below.
### Prompt Looking for the measured pIC50 of Cn1nnc2c(C(N)=O)ncn2c1=O [TMZ, temozolomide, reference compound] , can you help?
### Response < 5.00
